Origin of measurements: PubChem BioAssay (NCI)

- Test system: KM12 colon
- protocol: NCI tumour cell line growth inhibition, 48 h
recorded_metric: GI50

[[record]]
compound = "Nc1nc(=S)c2ncn(C3OC(COP(=O)(O)O)C(O)C3O)c2[nH]1 (stereo not given)"
recorded_metric = "GI50"
value_measured = "3.02 µM"

[[record]]
compound = "Nc1nccc(-c2c(-c3ccc(F)cc3)nn3cc(C(F)(F)F)ccc23)n1"
recorded_metric = "GI50"
value_measured = "> 25 µM"

[[record]]
compound = "OCC1CC[N-]CC1.OCC1CC[N-]CC1.[Cl][Pt+2]([Cl])([Cl])[Cl]"
recorded_metric = "GI50"
value_measured = "28.9 µM"

[[record]]
compound = "COc1ccccc1Oc1nccc(-c2c(-c3ccc(F)cc3)ncn2C2CCNCC2)n1"
recorded_metric = "GI50"
value_measured = "> 25 µM"

[[record]]
compound = "COCCN(Cc1ccc(F)cc1)c1ccc(CO)c(Cl)c1"
recorded_metric = "GI50"
value_measured = "33.8 µM"


Read the next record carefully.
Query :: Param item = Cc1ccc(NC(=O)c2cc(S(=O)(=O)Nc3nnc(-c4ccccc4)c(-c4ccccc4)n3)c(SCc3ccccc3)cc2Cl)cc1 ; retrieve measured GI50.
Result :: 21.5 µM
